Please respond with reported IC50 for every item in the list.
- Tested on: ovarian carcinoma cell line, A2780
- Protocol Summary: MTT cell viability assay, combinations of phytocannabinoids (Example 2)
- Assay type: cell-based
- Reported Conditions: Homo sapiens, A2780, 24 h, Experiment B (CBD in absence or presence of CBG), A2780 cells, 24 hours
Give bare numbers, in µM.

INSERT INTO results (smiles_representation, readout_unit, numeric_readout) VALUES
  ('CCCCCc1cc(O)c(C/C=C(\C)CCC=C(C)C)c(O)c1', 'µM', 13.9);

Turning now to a further molecule:
## Task Any idea what IC50 was measured for C=C(C)[C@@H]1CCC(C)=C[C@H]1c1c(O)cc(CCCCC)cc1O ?
## Result 11.8

----------
- System: ovarian carcinoma cell line, A2780
- Protocol Summary: MTT cell viability assay, single phytocannabinoids (Example 1)
- Type: cell-based
- Reported Conditions: Homo sapiens; A2780 cells, MTT, 48 hours incubation
Please respond with reported log10 of IC50 for every item in the list.
In plain terms, each number is the log10 of measured IC50 in µM.

INSERT INTO assay_data (compound, numeric_readout) VALUES
  ('CCCc1cc(O)c2c(c1)OC(C)(C)[C@@H]1CCC(C)=C[C@@H]21 [THCV, Tetrahydrocannabivarin]', 0.76),
  ('CCCCCc1cc(O)c(C/C=C(\C)CCC=C(C)C)c(O)c1 [CBG, Cannabigerol]', -0.08);

For each of the compounds below, state log10 of IC50.
1. C=C(C)[C@@H]1CCC(C)=C[C@H]1c1c(O)cc(CCCCC)c(C(=O)O)c1O [CBDA, Cannabidiolic acid]
2. CCCc1cc(O)c(C/C=C(\C)CCC=C(C)C)c(O)c1 [CBGV, Cannabigerol propyl variant]
3. C=C(C)[C@@H]1CCC(C)=C[C@H]1c1c(O)cc(CCCCC)cc1O [CBD, Cannabidiol]

## Result
1: 0.98; 2: 0.54; 3: -0.02

----------
- Test system: ovarian carcinoma cell line, A2780
- Protocol Summary: MTT cell viability assay, single phytocannabinoids (Example 1)
- Type: cell-based
- Reported Conditions: Homo sapiens; A2780 cells, MTT, 24 hours incubation
Note to self: use yes only for IC50 readings below 6 µM; a reading exactly at 6 µM still gets no.

Known results for compounds:
INSERT INTO results (compound, group) VALUES
  ('C=C(C)[C@@H]1CCC(C)=C[C@H]1c1c(O)cc(CCCCC)cc1O', 'yes'),
  ('C=C(C)[C@@H]1CCC(C)=C[C@H]1c1c(O)cc(CCCCC)c(C(=O)O)c1O', 'no'),
  ('CCCc1cc(O)c2c(c1)OC(C)(C)[C@@H]1CCC(C)=C[C@@H]21 [THCV, Tetrahydrocannabivarin]', 'no');

Now look at this entry.
## Task Consider the compound CCCCCc1cc(O)c(C/C=C(\C)CCC=C(C)C)c(O)c1 . Is its IC50 strictly less than 6 µM?
## Result yes

----------
- System: ovarian carcinoma cell line, A2780
- Protocol Summary: MTT cell viability assay, combinations of phytocannabinoids (Example 2)
- Format: cell-based
- Reported Conditions: Homo sapiens, A2780, 48 h, Experiment B (CBD in absence or presence of CBG), A2780 cells, 48 hours
Readout Name: IC50 (µM)
Answers are plain numbers, in µM.

INSERT INTO measurements (smiles_representation, readout_name, numeric_readout) VALUES
  ('CCCCCc1cc(O)c(C/C=C(\C)CCC=C(C)C)c(O)c1', 'IC50', 9.48);

Turning now to a further compound:
## Task Any idea what IC50 was measured for C=C(C)[C@@H]1CCC(C)=C[C@H]1c1c(O)cc(CCCCC)cc1O ?
## Result 6.85
